The reported numbers originate from PubChem BioAssay (NCI).

System: MDA-MB-231 breast
ASSAY PROCEDURE: NCI tumour cell line growth inhibition, 48 h
MEASURED ATTRIBUTE: TGI

Req: Query TGI on MDA-MB-231 breast for O=C1Cc2c([nH]c3ccccc23)C2(CC3CCCCN13)OCCO2 (stereo not given)
Resp: > 100 µM

Req: API: value(readout=TGI, system=MDA-MB-231 breast) for record `CCOC(=O)c1nc2cc(C(F)(F)F)ccc2nc1Nc1cc(OC)c(OC)c(OC)c1`
Resp: > 100 µM

Req: Fill in the recorded TGI for this compound, with MDA-MB-231 breast as test system: `COc1ccc(CCn2c3c(c4c(O)cccc42)C(=O)c2ccccc2-3)cc1OC`
Resp: > 90.9 µM

Req: Request body: readout TGI, system MDA-MB-231 breast, query `COc1ccc(NCc2cc(OC)c(OC)c(OC)c2)cc1` . Return the value.
Resp: > 100 µM

Req: Item `COc1cc(/C=N/Nc2ncnc3[nH]ncc23)ccc1O` with MDA-MB-231 breast - TGI?
Resp: > 25 µM

Req: Requested read-out TGI, target or system MDA-MB-231 breast, entry `CCOC(=O)/C=C(\C(=O)OCC)n1ccc(=O)n(Cc2cnnn2COCCOC(C)=O)c1=O`
Resp: 35 µM

Req: Record lookup: for MDA-MB-231 breast, what TGI belongs to `O=C(Oc1cccc2cccnc12)c1cc2cc(CCl)ccc2oc1=O` ?
Resp: 89.4 µM

Req: Requested read-out TGI, target or system MDA-MB-231 breast, entry `O=C(NCCc1[nH]nc2c1C(=O)C=C(Nc1ccccc1)C2=O)OCc1ccccc1`
Resp: > 100 µM

Req: Given the entry `O=S1CCN(Cc2ccc(-c3ccc4ncnc(Nc5ccc(OCc6ccccc6)c(Cl)c5)c4c3)o2)CC1` , what TGI was observed with MDA-MB-231 breast?
Resp: > 25 µM

Req: Lab note: need TGI with MDA-MB-231 breast for entry `O=C(NCCCCNC(=O)OCc1ccc2c(Cl)cc(Cl)c(O)c2n1)OCc1ccc2c(Cl)cc(Cl)c(O)c2n1` , please look it up.
Resp: > 100 µM
